Test system: HT-29
assayName: Antiproliferative activity against human HT-29 cells assessed as growth inhibition incubated at 10 uM for 24 hrs by MTT assay relative to control
Assay type: functional
measurementContext: read-out: GI
Label MET when inhibition of growth at 10 µM >= 40%; otherwise NOT MET.

# recordSmiles, classLabel
rows = [
    ("COc1cccc(NC(=S)N2CCN(c3nnc(Cc4ccccc4)c4ccccc34)CC2)c1", "MET"),
    ("COc1ccc(Cc2nnc(N3CCN(C(=S)Nc4ccccc4)CC3)c3ccccc23)cc1", "NOT MET"),
    ("O=C(Nc1ccccc1)N1CCN(c2nnc(Cc3ccccc3)c3ccccc23)CC1", "NOT MET"),
    ("COc1ccc(Cc2nnc(N3CCN(C(=S)Nc4ccc(OC)cc4)CC3)c3ccccc23)cc1", "MET"),
    ("COc1ccc(NC(=S)N2CCN(c3nnc(Cc4ccccc4)c4ccccc34)CC2)cc1", "NOT MET"),
    ("S=C(Nc1cccc(Cl)c1)N1CCN(c2nnc(Cc3ccccc3)c3ccccc23)CC1", "MET"),
    ("O=C(Nc1ccc(Cl)cc1)N1CCN(c2nnc(Cc3ccccc3)c3ccccc23)CC1", "MET"),
    ("O=C(Nc1ccc(Cl)c(C(F)(F)F)c1)N1CCN(c2nnc(Cc3ccccc3)c3ccccc23)CC1", "NOT MET"),
]

----------
System: KG-1
assayName: Antiproliferative activity against human KG-1 cells assessed as growth inhibition incubated at 10 uM for 24 hrs by MTT assay relative to control
Assay type: functional
measurementContext: read-out: GI
Overview of recorded inhibition of growth at 10 µM for various molecules

# recordSmiles, unitName, inhibition of growth at 10 µM
records = [
    ("COc1ccc(Cc2nnc(N3CCN(C(=S)Nc4ccc(Cl)cc4)CC3)c3ccccc23)cc1", "%", 63.9),
    ("COc1ccc(NC(=O)N2CCN(c3nnc(Cc4ccccc4)c4ccccc34)CC2)cc1", "%", 71.3),
    ("COc1ccc(Cc2nnc(N3CCN(C(=O)c4ccccc4)CC3)c3ccccc23)cc1", "%", 12.1),
    ("COc1ccc(Cc2nnc(N3CCN(C(=S)Nc4ccccc4)CC3)c3ccccc23)cc1", "%", 13.9),
    ("COc1cccc(NC(=S)N2CCN(c3nnc(Cc4ccccc4)c4ccccc34)CC2)c1", "%", 28.5),
]

----------
Quick reference: pIC50 of the listed items.
systemUnderTest: Cyclin-dependent kinase 1 (Homo sapiens, UniProt P06493)
Sequence (P06493 whole entry): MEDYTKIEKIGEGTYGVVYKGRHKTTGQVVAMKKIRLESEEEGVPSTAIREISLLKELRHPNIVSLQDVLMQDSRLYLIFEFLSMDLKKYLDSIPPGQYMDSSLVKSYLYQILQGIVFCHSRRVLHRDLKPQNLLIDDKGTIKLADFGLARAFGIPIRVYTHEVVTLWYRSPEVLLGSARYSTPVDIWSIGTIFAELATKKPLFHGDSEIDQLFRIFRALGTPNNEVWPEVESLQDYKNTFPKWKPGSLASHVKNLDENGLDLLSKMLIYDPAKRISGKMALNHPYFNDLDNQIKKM
pIC50: −log10 of the molar value.

# recordSmiles, pIC50
measured = [
    ("S=C(Nc1ccc(Cl)cc1)N1CCN(c2nnc(Cc3ccccc3)c3ccccc23)CC1", 6.96),
    ("COc1ccc(Cc2nnc(N3CCN(C(=O)Nc4ccc(OC)cc4)CC3)c3ccccc23)cc1", 7.28),
    ("O=C(Nc1ccc(Cl)c(C(F)(F)F)c1)N1CCN(c2nnc(Cc3ccccc3)c3ccccc23)CC1", 6.98),
    ("COc1ccc(Cc2nnc(N3CCN(C(=O)c4ccccc4)CC3)c3ccccc23)cc1", 7.04),
    ("COc1ccc(NC(=O)N2CCN(c3nnc(Cc4ccccc4)c4ccccc34)CC2)cc1", 7.18),
]

----------
// values below are IC50; system is Tyrosine-protein kinase JAK1 (Homo sapiens, UniProt P23458)
Sequence (P23458 whole entry): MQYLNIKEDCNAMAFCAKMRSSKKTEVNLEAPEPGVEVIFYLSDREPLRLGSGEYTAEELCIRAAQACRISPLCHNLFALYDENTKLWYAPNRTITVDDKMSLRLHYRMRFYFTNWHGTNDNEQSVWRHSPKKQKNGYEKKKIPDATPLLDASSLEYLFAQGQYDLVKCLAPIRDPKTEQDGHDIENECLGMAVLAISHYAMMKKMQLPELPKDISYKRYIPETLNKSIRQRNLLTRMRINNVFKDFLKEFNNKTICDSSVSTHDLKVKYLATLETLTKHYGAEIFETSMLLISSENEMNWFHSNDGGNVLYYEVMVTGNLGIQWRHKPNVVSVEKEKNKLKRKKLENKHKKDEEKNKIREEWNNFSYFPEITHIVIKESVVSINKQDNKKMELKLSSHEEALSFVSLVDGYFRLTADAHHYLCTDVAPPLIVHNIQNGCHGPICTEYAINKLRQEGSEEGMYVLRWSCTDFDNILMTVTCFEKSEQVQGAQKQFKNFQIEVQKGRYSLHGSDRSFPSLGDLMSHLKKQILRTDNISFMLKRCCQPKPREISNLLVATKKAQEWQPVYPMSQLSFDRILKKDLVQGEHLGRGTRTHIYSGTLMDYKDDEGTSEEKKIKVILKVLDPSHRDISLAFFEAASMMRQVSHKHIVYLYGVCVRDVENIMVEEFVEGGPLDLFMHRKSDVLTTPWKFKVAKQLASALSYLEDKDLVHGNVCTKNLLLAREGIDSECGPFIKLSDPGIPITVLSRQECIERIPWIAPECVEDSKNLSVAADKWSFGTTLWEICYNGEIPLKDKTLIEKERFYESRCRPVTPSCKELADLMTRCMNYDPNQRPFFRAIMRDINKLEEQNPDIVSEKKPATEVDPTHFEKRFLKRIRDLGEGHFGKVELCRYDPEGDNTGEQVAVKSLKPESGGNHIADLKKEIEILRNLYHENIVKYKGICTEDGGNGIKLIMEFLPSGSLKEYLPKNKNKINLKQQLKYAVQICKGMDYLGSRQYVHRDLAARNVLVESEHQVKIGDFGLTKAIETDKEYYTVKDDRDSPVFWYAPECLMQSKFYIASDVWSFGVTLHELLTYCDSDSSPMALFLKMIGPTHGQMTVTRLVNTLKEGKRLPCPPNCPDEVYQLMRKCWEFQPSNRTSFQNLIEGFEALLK
assayEndpoint: IC50 (µM)

# recordSmiles, systemUnderTest, unitName, valueObserved
measured = [
    ("O=C(Nc1ccc(Cl)cc1)N1CCN(c2nnc(Cc3ccccc3)c3ccccc23)CC1", "Tyrosine-protein kinase JAK1 (Homo sapiens, UniProt P23458)", "µM", 4.55),
    ("COc1ccc(Cc2nnc(N3CCN(C(=O)Nc4ccc(OC)cc4)CC3)c3ccccc23)cc1", "Tyrosine-protein kinase JAK1 (Homo sapiens, UniProt P23458)", "µM", 1.57),
    ("COc1ccc(NC(=S)N2CCN(c3nnc(Cc4ccccc4)c4ccccc34)CC2)cc1", "Tyrosine-protein kinase JAK1 (Homo sapiens, UniProt P23458)", "µM", 2.54),
    ("O=C(c1ccc(Cl)cc1)N1CCN(c2nnc(Cc3ccccc3)c3ccccc23)CC1", "Tyrosine-protein kinase JAK1 (Homo sapiens, UniProt P23458)", "µM", 3.39),
    ("COc1cccc(NC(=S)N2CCN(c3nnc(Cc4ccccc4)c4ccccc34)CC2)c1", "Tyrosine-protein kinase JAK1 (Homo sapiens, UniProt P23458)", "µM", 3.54),
    ("S=C(Nc1ccccc1)N1CCN(c2nnc(Cc3ccccc3)c3ccccc23)CC1", "Tyrosine-protein kinase JAK1 (Homo sapiens, UniProt P23458)", "µM", 4.97),
    ("O=C(c1ccccc1)N1CCN(c2nnc(Cc3ccccc3)c3ccccc23)CC1", "Tyrosine-protein kinase JAK1 (Homo sapiens, UniProt P23458)", "µM", 7.18),
    ("COc1ccc(Cc2nnc(N3CCN(C(=S)Nc4ccccc4)CC3)c3ccccc23)cc1", "Tyrosine-protein kinase JAK1 (Homo sapiens, UniProt P23458)", "µM", 3.55),
    ("COc1ccc(NC(=O)N2CCN(c3nnc(Cc4ccccc4)c4ccccc34)CC2)cc1", "Tyrosine-protein kinase JAK1 (Homo sapiens, UniProt P23458)", "µM", 8.5),
    ("COc1ccc(Cc2nnc(N3CCN(C(=S)Nc4ccc(Cl)cc4)CC3)c3ccccc23)cc1", "Tyrosine-protein kinase JAK1 (Homo sapiens, UniProt P23458)", "µM", 4.15),
]

Entry source: ChEMBL document CHEMBL5352421
